Reference source for all entries: patent US9951094B2

Reported Emission Maximum Wavelength λ em is given for each of the following molecules.
# protocol text: Fluorescence spectra in solvents
# Format: physicochemical
# measurement context: EtOH
parameter measured: Emission Maximum Wavelength λ em (nm)

{"molecule": "O=P1(c2ccccc2)C(c2ccc(N(c3ccccc3)c3ccccc3)cc2)=C(c2ccccc2)c2ccccc21 (stereo not drawn) [Compound 1]", "parameter measured": "Emission Maximum Wavelength λ em", "val": 595}
{"molecule": "O=P1(c2ccccc2)C(c2ccc(N(c3ccccc3)c3ccccc3)cc2)=Cc2cc3ccccc3cc21 (stereo not drawn) [Compound 6b]", "parameter measured": "Emission Maximum Wavelength λ em", "val": 550}
{"molecule": "O=P1(c2ccccc2)C(c2ccc(N(c3ccccc3)c3ccccc3)cc2)=Cc2ccc3ccccc3c21 (stereo not drawn) [Compound 6d]", "parameter measured": "Emission Maximum Wavelength λ em", "val": 611}

====

# protocol text: Fluorescence spectra in solvents
# Type: physicochemical
# measurement context: CH3CN
Mark label 1 for reported Emission Maximum Wavelength λ em of 600 nm or greater; mark label 0 for anything smaller.

{"compound": "CN(C)c1ccc(C2=Cc3ccccc3P2(=O)c2ccccc2)cc1 (stereo not shown)", "group label": "label 0"}
{"compound": "O=P1(c2ccccc2)C(c2ccc(N(c3ccccc3)c3ccccc3)cc2)=Cc2ccc3ccccc3c21 (stereo not shown)", "group label": "label 1"}
{"compound": "O=P1(c2ccccc2)C(c2cc3c4c(c2)CCCN4CCC3)=Cc2cc3ccccc3cc21 (stereo not shown)", "group label": "label 0"}
{"compound": "O=P1(c2ccccc2)C(c2ccc(N(c3ccccc3)c3ccccc3)cc2)=Cc2cc3ccccc3cc21 (stereo not shown)", "group label": "label 0"}
{"compound": "O=P1(c2ccccc2)C(c2ccc(N(c3ccccc3)c3ccccc3)cc2)=Cc2ccccc21 (stereo not shown)", "group label": "label 0"}

====

# protocol text: Absolute fluorescence quantum yield in solvents
# Format: physicochemical
# measurement context: EtOH; apparatus C11347-01
# key: entry, value: Fluorescence Quantum Yield φF
parameter measured: Fluorescence Quantum Yield φF

{"compound": "O=P1(c2ccccc2)C(c2ccc(N(c3ccccc3)c3ccccc3)cc2)=Cc2cc3ccccc3cc21 (stereo not drawn) [Compound 6b]", "val": 0.79}
{"compound": "O=P1(c2ccccc2)C(c2ccc(N(c3ccccc3)c3ccccc3)cc2)=Cc2ccccc21 (stereo not drawn) [Compound 2]", "val": 0.57}
{"compound": "CN(C)c1ccc(C2=Cc3ccccc3P2(=O)c2ccccc2)cc1 (stereo not drawn) [Compound 3]", "val": 0.82}
{"compound": "O=P1(c2ccccc2)C(c2ccc(N(c3ccccc3)c3ccccc3)cc2)=Cc2ccc3ccccc3c21 (stereo not drawn) [Compound 6d]", "val": 0.51}
{"compound": "O=P1(c2ccccc2)C(c2cc3c4c(c2)CCCN4CCC3)=Cc2cc3ccccc3cc21 (stereo not drawn) [Compound 6c]", "val": 0.67}
{"compound": "O=P1(c2ccccc2)C2=C(c3ccccc31)C(c1ccccc1)(c1ccccc1)c1cc(N(c3ccccc3)c3ccccc3)ccc12 (stereo not drawn) [Compound 7a]", "val": 0.70}

====

# protocol text: Absolute fluorescence quantum yield in solvents
# Format: physicochemical
# measurement context: CH3CN; apparatus C11347-01

{"compound": "O=P1(c2ccccc2)C2=C(c3ccccc31)C(c1ccccc1)(c1ccccc1)c1cc(N(c3ccccc3)c3ccccc3)ccc12 (stereo not shown)", "Fluorescence Quantum Yield φF": 0.79}
{"compound": "O=P1(c2ccccc2)C(c2ccc(N(c3ccccc3)c3ccccc3)cc2)=Cc2ccc3ccccc3c21 (stereo not shown)", "Fluorescence Quantum Yield φF": 0.58}
{"compound": "CN(C)c1ccc(C2=Cc3ccccc3P2(=O)c2ccccc2)cc1 (stereo not shown)", "Fluorescence Quantum Yield φF": 0.89}
{"compound": "O=P1(c2ccccc2)C(c2ccc(N(c3ccccc3)c3ccccc3)cc2)=Cc2ccccc21 (stereo not shown)", "Fluorescence Quantum Yield φF": 0.61}
{"compound": "O=P1(c2ccccc2)C(c2ccc(N(c3ccccc3)c3ccccc3)cc2)=Cc2cc3ccccc3cc21 (stereo not shown)", "Fluorescence Quantum Yield φF": 0.80}
{"compound": "O=P1(c2ccccc2)C(c2cc3c4c(c2)CCCN4CCC3)=Cc2cc3ccccc3cc21 (stereo not shown)", "Fluorescence Quantum Yield φF": 0.71}
